This collection of values is drawn from PubChem BioAssay (NCATS).

System: CAOV3
measurement.description: Primary qHTS to identify gynecologic anti-cancer compounds using libraries of approved drugs and bioactive compounds (AID 1345084); further: on the % scale 0 is the no-effect control and ±100 the full control effect; nearly all actives have a fitted effect of over 55% in size
conditions.used: Gynecologic cancer cell panel viability, ATPlite luminescence, 48 h; series mostly up to 57.5 µM
Inconclusive results are not listed. Active and inactive are the calls of the source. The call rests on the fitted dose curve; in most records, active means well fitted cell-killing curve with a large enough effect; inconclusive means small, poorly fitted or top-dose-only effect, or effect the other way; inactive means flat fitted curve, though single readings scatter.
Choose one outcome from this list and give only that: YES (active), NO (inactive)

# count of solved cases: 2
molecule	label
COc1ccc(S(=O)(=O)N2CCC[C@H]2C(=O)Nc2cc(C)cc(C)c2)cc1	NO
C=C1C(=O)OC2/C=C(\CO)CC/C=C(\C=O)C(OC)C(OC(=O)C(C)CC)C12 (stereo not drawn)	NO

# input Assay outcome for O=C(Nc1ccn(Cc2ccc(O)cc2C(F)(F)F)n1)c1c(F)cccc1F : what was it?
# output NO

----------
System: PA-1
measurement.description: Primary qHTS to identify gynecologic anti-cancer compounds using libraries of approved drugs and bioactive compounds (AID 1345084); further: on the % scale 0 is the no-effect control and ±100 the full control effect; nearly all actives have a fitted effect of over 55% in size
conditions.used: Gynecologic cancer cell panel viability, ATPlite luminescence, 48 h; series mostly up to 57.5 µM
Results filed as inconclusive are left out. Activity calls are given as the source filed them. The call rests on the fitted dose curve; in most records, active means well fitted cell-killing curve with a large enough effect; inconclusive means small, poorly fitted or top-dose-only effect, or effect the other way; inactive means flat fitted curve, though single readings scatter.
Entry note: the call must match one of 1 = active, 0 = inactive

Observe how each entry below is paired with its result.
molecule	label
COc1cc(/C=C2\CC[C@H]3COC[C@@H](c4cc(F)c(F)c(F)c4)N3C2=O)ccc1-n1cnc(C)c1	0
O=C(NCCN1CCOCC1)c1cc2c(Oc3ccc(NC(=O)C4(C(=O)Nc5ccc(F)cc5)CC4)cc3)ccnc2[nH]1	0
CNC(=O)[C@@H](c1ccccc1)N1CCc2cc(OC)c(OC)cc2[C@@H]1CCc1ccc(C(F)(F)F)cc1	0

Now look at this one.
# input Look up the recorded call for COc1ccc(OC)c(-c2ccc(NC(=O)c3ccncc3F)cc2)c1 in this test.
# output 0

----------
Tested on: KB-3-1
measurement.description: Cytotoxic Profiling of Annotated Libraries Using Quantitative High-Throughput Screening (AID 1296008); further: on the % scale 0 is the no-effect control and ±100 the full control effect; nearly all actives have a fitted effect of over 60% in size
conditions.used: Five cell lines viability, CellTiter-Glo ATP luminescence, 48-72 h; hits give low values
Records with an inconclusive call do not appear.
Please note: max response exactly at -10% is No. Only values below -10% get Yes.

Observe how each entry below is paired with its result.
compound	label
O=C(c1ccccn1)N(Cc1cccs1)C1(C(=O)NC2CCCCC2)CCCCC1	No
COc1c(F)cccc1C(=O)N1C[C@@H](C)CC[C@H]1CNc1ccc(Br)cn1	Yes
CC(C)(N)c1ncc(-c2ccc(OC(F)(F)F)cc2)[nH]1	Yes
CCOc1ccc(S(=O)(=O)N2CCCCCC2)c2ccccc12	Yes
NC(=O)C1=CC2C3C=CC2C(OC3=O)O1 (stereo not given)	No
CC(C)(C)c1ccc(C(=O)Nc2cn3cc(-n4ccnc4)ccc3n2)cc1	No
N#Cc1cc(C2=Nc3ccc(Br)cc3NC(=O)C2)ccn1	No
C/C=C(/C)C(=O)OC1C=C2C3C(C)C(C)C(OC(=O)C(C)C(C)O)CC3(C)CCC2(C)C2(C)CC(OC(C)=O)C3C(C)(C)C(O)C(=O)CC3(C)C12 (stereo not given)	No

# input Bench note: check whether C[C@@H]1C[C@H]2C3C[C@H](F)C4=CC(=O)C=CC4(C)[C@@]3(F)[C@@H](O)CC2(C)[C@@]1(O)C(=O)COC(=O)C(C)(C)C (stereo not given in full) shows max response below -10%
# output No

# input Find out if reported max response for COc1ccc(N2CCN(C(=O)c3cc4c(s3)-c3ccccc3S(=O)(=O)C4)CC2)cc1 is less than -10%
# output Yes

# input Threshold test, max response < -10%: COc1cccc(N2CCN(C3=Nc4c(F)cccc4[C@H](CC(=O)O)N3c3cc(C(F)(F)F)ccc3OC)CC2)c1
# output Yes

# input # strict comparison: is reported max response < -10%? input = CNc1cccc(CCOc2ccc3c(c2)CN(CC(F)(F)F)C(=O)[C@H](CC(=O)O)C3)n1
# output No

# input Just wondering, is max response of COc1cc(-c2nc(N[C@H](CO)Cc3ccccc3)ccc2C(=O)NCCOc2ccccc2)cc(OC)c1OC below -10%?
# output No
